assay: qHTS for differential inhibitors of proliferation of Plasmodium falciparum line HB3 (AID 1886); conditions: Plasmodium falciparum HB3 proliferation inhibition; series mostly up to 28.7 µM;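 further: parasites grown with compound for 72 h before SYBR Green readout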
Records with an inconclusive call do not appear. The source made the active and inactive calls. The call rests on the fitted dose curve; in most records, active means well fitted curve in the direction sought with a large enough effect; inconclusive means small, poorly fitted or top-dose-only effect, or another doubt; inactive means no such curve, though single readings can be large or run the other way.
Outcomes: active, inactive

compound	cat
CN1CCN(CCCN2c3ccccc3Sc3ccc(Cl)cc32)CC1	active
CCOC(=O)c1ncn2c1CN(C)C(=O)c1cc(F)ccc1-2	inactive
CC(CCc1ccc(O)cc1)NCCc1ccc(O)c(O)c1 (stereo unspecified)	active
CCC1(c2ccccc2)C(=O)NCNC1=O	inactive
Cc1ccccc1N1C(=O)c2cc(S(N)(=O)=O)c(Cl)cc2NC1C (stereo unspecified)	inactive
Nc1nc2c(ncn2COC(CO)CO)c(=O)[nH]1	inactive
O=C(c1ccc(OCCN2CCCCC2)cc1)c1c(-c2ccc(O)cc2)sc2cc(O)ccc12	active
O=C(Nc1ccc([N+](=O)[O-])cc1Cl)c1cc(Cl)ccc1O	active
CC(C)(Oc1ccc(C2CC2(Cl)Cl)cc1)C(=O)O (stereo unspecified)	inactive
Cc1cn([C@H]2C=C[C@@H](CO)O2)c(=O)[nH]c1=O	inactive
Nc1nnc(-c2cccc(Cl)c2Cl)c(N)n1	inactive
COc1cc2nc(N3CCN(C(=O)C4COc5ccccc5O4)CC3)nc(N)c2cc1OC (stereo unspecified)	active
CC(C)Cc1ccc(C(C)C(=O)O)cc1 (stereo unspecified)	inactive
CN1CCC(=C2c3ccccc3CC(=O)c3sccc32)CC1	active
O=C1c2c(O)ccc(O)c2C(=O)c2c(NCCNCCO)ccc(NCCNCCO)c21	active
O=C(c1ccc(F)cc1)C1CCN(CCn2c(=O)[nH]c3ccccc3c2=O)CC1	active

====

experiment: qHTS of pediatric cancer cell lines to identify multiple opportunities for drug repurposing: Primary screen for DAOY cells (AID 1347090); conditions: DAOY medulloblastoma viability, CellTiter-Glo luminescence, 48 h; series mostly up to 46 µM; further: nearly all actives have a fitted effect of over 55% in size
Records with an inconclusive call do not appear. Activity calls are given as the source filed them. Calls follow the shape of the dose curve; as a rule, active = well fitted cell-killing curve with a large enough effect; inconclusive = small, poorly fitted or top-dose-only effect; inactive = flat fitted curve, though single readings scatter.
quantity-kind: outcome

compound	reported-value
Clc1ccc(C(c2ccccc2Cl)C(Cl)Cl)cc1 (stereo unspecified)	inactive
CN(C)CCC=C1c2ccccc2C=Cc2ccccc21	inactive
O=c1c(-c2ccc(O)cc2)coc2cc(O)cc(O)c12	inactive
CN1C(C(=O)Nc2ccccn2)=C(O)c2ccccc2S1(=O)=O	inactive
COc1ccccc1OCC(O)CN1CCN(CC(=O)Nc2c(C)cccc2C)CC1 (stereo unspecified)	inactive
CS(=O)(=O)Nc1ccc([N+](=O)[O-])cc1Oc1ccccc1	inactive

====

assay: Quantitative High-Throughput drug screen in 47 multiple myeloma cell lines against the NCATS MIPE library collection: L363_DSMZ cell viability assay (AID 1918984); settings: L363 myeloma viability, CellTiter-Glo ATP luminescence, 48 h; series mostly up to 45.8 µM; further: nearly all actives have a fitted effect of over 40% in size
Records with an inconclusive call do not appear. Activity calls are given as the source filed them. Calls follow the shape of the dose curve; as a rule, active = well fitted cell-killing curve with a large enough effect; inconclusive = small, poorly fitted or top-dose-only effect, or effect the other way; inactive = no such curve, though single readings can be large or run the other way.
Outcomes: TRUE (active), FALSE (inactive)

compound	cat
CCc1cccc2c3c([nH]c12)C(CC)(CC(=O)O)OCC3 (stereo not given)	FALSE
CC(C)NCC(O)COc1ccc(CCOCC2CC2)cc1 (stereo not given)	FALSE
CN1CCC(=C2c3ccccc3CC(=O)c3sccc32)CC1	TRUE
CN(CCOc1ccc(NS(C)(=O)=O)cc1)CCc1ccc(NS(C)(=O)=O)cc1	FALSE
C[C@@H]1CC(=O)NN=C1c1ccc(NN=C(C#N)C#N)cc1	FALSE
COc1cc2nc(N3CCN(C(=O)C4COc5ccccc5O4)CC3)nc(N)c2cc1OC (stereo not given)	FALSE
CC(=O)OCC(CCn1cnc2cnc(N)nc21)COC(C)=O	FALSE
Cc1ccc(C(=O)Nc2ccc(S(=O)(=O)O)c3cc(S(=O)(=O)O)cc(S(=O)(=O)O)c23)cc1NC(=O)c1cccc(NC(=O)Nc2cccc(C(=O)Nc3cc(C(=O)Nc4ccc(S(=O)(=O)O)c5cc(S(=O)(=O)O)cc(S(=O)(=O)O)c45)ccc3C)c2)c1	FALSE
NC(CO)C(=O)NNCc1ccc(O)c(O)c1O (stereo not given)	FALSE
CS(=O)(=O)CCNCc1ccc(-c2ccc3ncnc(Nc4ccc(OCc5cccc(F)c5)c(Cl)c4)c3c2)o1	TRUE
